Catalogue of pIC50 values
Test system: Ramos
assayRemarks: CCK-8 tumor cell proliferation, Ramos
conditionInfo: Homo sapiens, Table 9, designed based on SHP2 inhibitors, 72 h, read-out: IC50 for inhibiting the proliferation of tumor cells, Ramos
pIC50: −log10 of the molar value.
resultType: pIC50

1) CC1(N)CCN(c2cnc(-c3cccc(Cl)c3Cl)c(N)n2)CC1 :: < 5.00
2) C[C@@H]1OCC2(CCN(c3cnc(Sc4ccnc(N)c4Cl)c(N)n3)CC2)[C@@H]1N :: < 5.00
3) CC1(N)CCN(c2cnc3c(-c4cccc(Cl)c4Cl)n[nH]c3n2)CC1 :: < 5.00

###

Tested on: SW620
assayRemarks: CCK-8 tumor cell proliferation, SW620
Format: cell-based, Human
conditionInfo: Homo sapiens, SW-620; Table 19, IRAK4 inhibitor based; SW620; read-out: IC50 inhibiting proliferation of tumor cells, SW620
resultType: IC50

1) O=C1CCC(N2Cc3cc(CN4CCC(n5cc(NC(=O)c6coc(-c7ccnc(NCC8CC8)c7)n6)c(C(F)F)n5)CC4)cc(F)c3C2=O)C(=O)N1 (centres unmarked) [GT-04172] :: < 0.05 µM
2) O=C1CCC(N2C(=O)c3ccc(CN4CCC(n5cc(NC(=O)c6coc(-c7ccnc(NCC(F)(F)F)c7)n6)c(C(F)F)n5)CC4)cc3C2=O)C(=O)N1 (centres unmarked) [GT-04088] :: 0.1 to 0.5 µM
3) O=C1CCC(N2Cc3cc(CN4CCC(n5cc(NC(=O)c6cnn7ccc(N8CCOCC8)nc67)c(C(F)F)n5)CC4)cc(F)c3C2=O)C(=O)N1 (centres unmarked) [GT-03812] :: 1 to 5 µM
4) O=C1CCC(N2Cc3cc(CN4CCC(n5cc(NC(=O)c6coc(-c7ccnc(NCC8CC8)c7)n6)c(C(F)F)n5)CC4)c(F)cc3C2=O)C(=O)N1 (centres unmarked) [GT-04171] :: < 0.05 µM
5) O=C1CCC(N2Cc3cc(CN4CCC(n5cc(NC(=O)c6coc(-c7ccnc(NCC8CC8)c7)n6)c(C(F)F)n5)CC4)ccc3C2=O)C(=O)N1 (centres unmarked) [GT-04153] :: < 0.05 µM

###

Tested on: MM.1S
assayRemarks: CCK-8 tumor cell proliferation, MM.1S
Format: cell-based
conditionInfo: Homo sapiens, MM1.S; Table 8, designed based on ER inhibitors; 72 h; read-out: IC50 for inhibiting the proliferation of tumor cells, MM.1S
resultType: IC50

1. CC/C(=C(/c1ccc(O)cc1)c1ccc(OCCN)cc1)c1ccc(O)cc1 [GT-03308, reference compound] :: > 10 µM

###

Catalogue of IC50 values
Tested on: Kasumi-1
assayRemarks: CCK-8 tumor cell proliferation, Kasumi-1
Type: cell-based, Human
conditionInfo: Homo sapiens; Table 19, IRAK4 inhibitor based; Kasumi-1; read-out: IC50 inhibiting proliferation of tumor cells, Kasumi-1
resultType: IC50

1) O=C1CCC(N2Cc3cc(CN4CCN(c5ccc(-n6cc(NC(=O)c7coc(-c8ccnc(NCC(F)(F)F)c8)n7)c(C(F)F)n6)cc5)CC4)ccc3C2=O)C(=O)N1 (stereo not drawn) :: 100 to 500 nM
2) O=C1CCC(N2Cc3cc(CN4CCN(c5ccc(-n6cc(NC(=O)c7coc(-c8ccnc(NCC(F)(F)F)c8)n7)c(C(F)F)n6)cc5)CC4)c(F)cc3C2=O)C(=O)N1 (stereo not drawn) :: 50 to 100 nM
3) O=C1CCC(N2Cc3c(CN4CCN(c5ccc(-n6cc(NC(=O)c7coc(-c8ccnc(NCC(F)(F)F)c8)n7)c(C(F)F)n6)cc5)CC4)cccc3C2=O)C(=O)N1 (stereo not drawn) :: < 50 nM

###

Tested on: THP-1
assayRemarks: CCK-8 tumor cell proliferation, THP-1
Type: cell-based, Human
conditionInfo: Homo sapiens, THP-1; Table 7, designed based on BTK inhibitors; 72 h; read-out: IC50 for inhibiting the proliferation of tumor cells, THP-1
Procedure: The tumor cells used herein were cultured in a cell culture medium listed in table 4 at 37° C. in an incubator with 5% CO2. […] IC50 values of the compounds of the present disclosure (including the compounds in Tables 1 and 3, and compounds of examples) were measured using the Meilun Cell Counting Kit-8 kit from Dalian Meilun Biotech Co., Ltd. Assay details are as follows: tumor cells were seeded in a 96-well plate at a density listed in Table 5. […]
resultType: IC50

1. C=CC(=O)N1CCC[C@@H](n2nc(-c3ccc(Oc4ccccc4)cc3)c3c(N)ncnc32)C1 [ibrutinib, Ibrutinib, reference compound] :: > 10 µM

###

Tested on: CAL-62
assayRemarks: CCK-8 tumor cell proliferation, CAL-62
Assay type: cell-based, Human
conditionInfo: Table 19, IRAK4 inhibitor based; CAL-62; read-out: IC50 inhibiting proliferation of tumor cells, CAL-62
resultType: IC50

1) CC(C)Nc1cc(-n2ccc3cc(C#N)cnc32)ncc1C(=O)N[C@H]1CC[C@H](C(=O)NCc2ccc3c(c2)CN(C2CCC(=O)NC2=O)C3=O)CC1 (stereo partly shown) :: < 50 nM

###

Test system: SW620
assayRemarks: CCK-8 tumor cell proliferation, SW620
Format: cell-based, Human
conditionInfo: Table 19; SW620; given as number; read-out: IC50 inhibiting proliferation of tumor cells, SW620
pIC50: −log10 of the molar value.
resultType: pIC50

1) CC[C@@H]1[C@H](F)C(=O)N[C@@H]1COc1nccc2cc(C(N)=O)c(OC)cc12 [PF06650833, reference compound] :: < 5.00

###

System: Vcap
assayRemarks: CCK-8 tumor cell proliferation, Vcap
Assay type: cell-based, Human
conditionInfo: Homo sapiens, VCaP, Table 22, NTRK inhibitor based; Vcap; read-out: IC50 inhibiting proliferation of tumor cells, Vcap
resultType: IC50

1) O=C1CCC(N2Cc3cc(CN4CCN(c5cccc(-c6cnc7ccc(N8CCC[C@@H]8c8cccc(F)c8)nn67)n5)CC4)c(F)cc3C2=O)C(=O)N1 (stereo partly shown) :: 50 to 100 nM

###

Test system: Hep3B2.7-1
assayRemarks: CCK-8 tumor cell proliferation, Hep3B2.7-1
Assay type: cell-based, Human
conditionInfo: Homo sapiens; Table 8, designed based on ER inhibitors; 96 h; read-out: IC50 for inhibiting the proliferation of tumor cells, Hep3B2.7-1
resultType: IC50

1. CC/C(=C(/c1ccc(O)cc1)c1ccc(OCCN)cc1)c1ccc(O)cc1 [GT-03308, reference compound] :: > 10 µM

###

System: 22RV1
assayRemarks: CCK-8 tumor cell proliferation, 22RV1
Design: species or system Human
conditionInfo: Homo sapiens, 22Rv1; Table 7, designed based on BTK inhibitors; 96 h; read-out: IC50 for inhibiting the proliferation of tumor cells, 22RV1
Method: The tumor cells used herein were cultured in a cell culture medium listed in table 4 at 37° C. in an incubator with 5% CO2. […] IC50 values of the compounds of the present disclosure (including the compounds in Tables 1 and 3, and compounds of examples) were measured using the Meilun Cell Counting Kit-8 kit from Dalian Meilun Biotech Co., Ltd. Assay details are as follows: tumor cells were seeded in a 96-well plate at a density listed in Table 5. […]
pIC50: −log10 of the molar value.
resultType: pIC50

1. C=CC(=O)N1CCC[C@@H](n2nc(-c3ccc(Oc4ccccc4)cc3)c3c(N)ncnc32)C1 [ibrutinib, Ibrutinib, reference compound] :: < 5.00

###

Test system: MDA-MB-231
assayRemarks: CCK-8 tumor cell proliferation, MDA-MB-231
Assay type: cell-based, Human
Design: scale not given here
conditionInfo: Table 7, designed based on BTK inhibitors; 96 h
resultType: IC50 for inhibiting the proliferation of tumor cells, MDA-MB-231

1. Nc1ncnc2c1c(-c1ccc(Oc3ccccc3)cc1)nn2[C@@H]1CCN(Cc2ccc3c(c2)CN(C2CCC(=O)NC2=O)C3=O)C[C@H]1F (some centres unmarked) [GT-03287] :: A+
2. Nc1ncnc2c1c(-c1ccc(Oc3ccccc3)cc1)nn2[C@@H]1CCN(Cc2ccc3c(c2)CN(C2CCC(=O)NC2=O)C3=O)C[C@@H]1F (some centres unmarked) [GT-03297] :: A+
3. Nc1ncnc2c1c(-c1ccc(Oc3ccccc3)cc1)nn2[C@H]1CCN(Cc2ccc3c(c2)CN(C2CCC(=O)NC2=O)C3=O)C[C@H]1F (some centres unmarked) [GT-03331] :: A+
4. Nc1ncnc2c1c(-c1ccc(Oc3ccccc3)cc1)nn2[C@H]1CCN(Cc2ccc3c(c2)CN(C2CCC(=O)NC2=O)C3=O)C[C@@H]1F (some centres unmarked) [GT-03264] :: A+
5. Nc1ncnc2c1c(-c1ccc(Oc3ccccc3)cc1)nn2C1CCN(Cc2cc3c(cc2F)C(=O)N(C2CCC(=O)NC2=O)C3)CC1 (centres unmarked) [GT-03605] :: A+
6. Nc1ncnc2c1c(-c1ccc(Oc3ccccc3)cc1)nn2C1CCN(Cc2ccc3c(c2)CN(C2CCC(=O)NC2=O)C3=O)CC1 (centres unmarked) [GT-02742] :: A+
7. Nc1ncnc2c1c(-c1ccc(Oc3ccccc3)cc1)nn2C1CCN(Cc2ccc3c(c2F)CN(C2CCC(=O)NC2=O)C3=O)CC1 (centres unmarked) [GT-03472] :: A+
8. Nc1ncnc2c1c(-c1ccc(Oc3ccccc3)cc1)nn2C1CCN(Cc2ccc3c(c2)CN(C2CCC(=O)NC2=O)C3=O)CC1F (centres unmarked) [GT-02652] :: A+
